Target: HiBit-BRG1 fusion protein (Homo sapiens)
Construct: expressed in transfected cells
Sequence (P51532 whole entry, the tested form may be a part): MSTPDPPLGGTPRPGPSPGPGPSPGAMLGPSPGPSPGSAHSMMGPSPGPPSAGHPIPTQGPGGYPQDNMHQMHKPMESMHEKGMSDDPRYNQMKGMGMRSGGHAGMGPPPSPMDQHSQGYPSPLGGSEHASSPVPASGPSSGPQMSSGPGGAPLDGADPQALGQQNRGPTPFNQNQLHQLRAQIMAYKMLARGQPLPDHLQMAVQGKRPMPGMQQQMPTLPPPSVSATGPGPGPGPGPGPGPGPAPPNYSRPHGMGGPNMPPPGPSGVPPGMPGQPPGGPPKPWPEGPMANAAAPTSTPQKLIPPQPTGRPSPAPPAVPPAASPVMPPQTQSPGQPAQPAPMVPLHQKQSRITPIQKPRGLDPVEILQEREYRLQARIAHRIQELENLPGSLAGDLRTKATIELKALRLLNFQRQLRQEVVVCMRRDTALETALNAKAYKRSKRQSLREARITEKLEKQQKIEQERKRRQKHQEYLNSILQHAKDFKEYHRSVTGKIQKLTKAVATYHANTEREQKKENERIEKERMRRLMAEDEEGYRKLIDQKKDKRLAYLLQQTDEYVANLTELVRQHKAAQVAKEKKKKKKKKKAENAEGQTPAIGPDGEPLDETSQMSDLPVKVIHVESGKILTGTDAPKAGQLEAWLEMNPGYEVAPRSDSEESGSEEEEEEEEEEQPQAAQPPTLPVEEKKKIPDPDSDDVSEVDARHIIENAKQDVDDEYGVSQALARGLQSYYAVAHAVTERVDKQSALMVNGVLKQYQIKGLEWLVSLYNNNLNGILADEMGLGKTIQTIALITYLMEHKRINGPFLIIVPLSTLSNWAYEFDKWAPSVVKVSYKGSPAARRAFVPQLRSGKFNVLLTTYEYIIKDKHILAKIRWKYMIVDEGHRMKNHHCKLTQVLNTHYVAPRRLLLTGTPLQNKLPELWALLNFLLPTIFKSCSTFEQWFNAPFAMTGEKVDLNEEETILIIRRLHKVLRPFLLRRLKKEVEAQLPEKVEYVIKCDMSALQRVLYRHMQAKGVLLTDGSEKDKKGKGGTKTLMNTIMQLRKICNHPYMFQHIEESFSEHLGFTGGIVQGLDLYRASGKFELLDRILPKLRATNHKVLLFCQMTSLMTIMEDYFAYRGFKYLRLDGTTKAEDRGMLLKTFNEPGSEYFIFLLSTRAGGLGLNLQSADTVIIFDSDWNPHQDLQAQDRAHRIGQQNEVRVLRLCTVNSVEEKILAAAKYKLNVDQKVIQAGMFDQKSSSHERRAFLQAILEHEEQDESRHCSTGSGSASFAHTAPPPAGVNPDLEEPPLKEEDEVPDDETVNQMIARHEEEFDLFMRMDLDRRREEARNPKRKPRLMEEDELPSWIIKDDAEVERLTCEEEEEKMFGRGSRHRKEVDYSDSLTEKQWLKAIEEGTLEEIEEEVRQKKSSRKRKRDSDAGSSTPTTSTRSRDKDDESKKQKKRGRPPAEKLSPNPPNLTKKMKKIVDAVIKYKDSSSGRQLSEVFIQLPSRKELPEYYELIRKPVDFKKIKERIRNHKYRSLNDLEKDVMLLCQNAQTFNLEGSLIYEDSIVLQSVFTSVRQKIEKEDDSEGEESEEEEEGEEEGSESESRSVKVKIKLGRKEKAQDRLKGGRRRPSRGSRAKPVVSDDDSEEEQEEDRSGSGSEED
Assay: HiBiT-BRG1 cell-based degradation assay (Nano-Glo HiBiT Lytic Detection, 24 h)
Conditions: HeLa, HeLa cells expressing HiBit-BRG1 and LgBit, top dose 30 μM, read-out: BRG1 HiBit Degradation Maximum measured
value-kind: Dmax

What Dmax value was documented for this molecule, Cc1ncsc1-c1ccc(CNC(=O)[C@@H]2C[C@@H](O)CN2C(=O)[C@@H](NC(=O)CCCCCNC(=O)CN(C)c2cc(-c3cccc(-c4csc(NC(=O)CNC(=O)c5ccn(S(C)(=O)=O)c5)n4)c3)ccn2)C(C)(C)C)cc1 ? < 50%

Others:
What Dmax value was documented for this molecule, CS(=O)(=O)n1ccc(C(=O)N[C@@H](CCOCCCC(=O)NCCCCNc2ccc3c(c2)C(=O)N(C2CCC(=O)NC2=O)C3=O)C(=O)Nc2nc(-c3ccccc3)cs2)c1 (stereo partly shown) ? < 50%

What Dmax value was documented for this molecule, CS(=O)(=O)n1ccc(C(=O)N[C@@H](COCc2ccc(C(=O)N3CCN(CCCCCOc4ccc5c(c4)C(=O)N(C4CCC(=O)NC4=O)C5=O)CC3)cc2)C(=O)Nc2nc(-c3ccccc3)cs2)c1 (stereo partly shown) ? 50 to 75%

What Dmax value was documented for this molecule, CS(=O)(=O)n1ccc(C(=O)NCC(=O)Nc2nc(-c3cccc(-c4ccnc(OCCNC(=O)CCCCCCCCCCNc5cccc6c5C(=O)N(C5CCC(=O)NC5=O)C6=O)c4)c3)cs2)c1 (stereo not shown) ? < 50%

###

Target: HiBit-BRG1 fusion protein (Homo sapiens)
Construct: expressed in transfected cells
Test: HiBiT-BRG1 cell-based degradation assay (Nano-Glo HiBiT Lytic Detection, 24 h)
Conditions: HeLa cells expressing HiBit-BRG1 and LgBit, read-out: BRG1 HiBit Degradation IC50
DC50: recorded values

The cases that follow already have their DC50 on record.
What DC50 value was documented for this molecule, CS(=O)(=O)n1ccc(C(=O)N[C@@H](COCc2ccc(CNC(=O)CCOCCOCCOc3cccc4c3C(=O)N(C3CCC(=O)NC3=O)C4=O)cc2)C(=O)Nc2nc(-c3ccccc3)cs2)c1 (stereo partly shown) ? > 10 µM

What DC50 value was documented for this molecule, CS(=O)(=O)n1ccc(C(=O)N[C@@H](CCOCCCC(=O)NCCCC#Cc2ccc3c(c2)C(=O)N(C2CCC(=O)NC2=O)C3=O)C(=O)Nc2nc(-c3ccccc3)cs2)c1 (stereo partly shown) ? > 10 µM

What DC50 value was documented for this molecule, CS(=O)(=O)n1ccc(C(=O)NCC(=O)Nc2nc(-c3cccc(-c4ccnc(C5(C(=O)NCCCCCNc6cccc7c6C(=O)N(C6CCC(=O)NC6=O)C7=O)CC5)c4)c3)cs2)c1 (stereo not shown) ? 0.1 to 1 µM

Others:
What DC50 value was documented for this molecule, Cc1ncsc1-c1ccc(CNC(=O)[C@@H]2C[C@@H](O)CN2C(=O)[C@@H](NC(=O)CCCCCNC(=O)c2ccc(COC[C@H](NC(=O)c3ccn(S(C)(=O)=O)c3)C(=O)Nc3nc(-c4ccccc4)cs3)cc2)C(C)(C)C)cc1 ? > 10 µM

What DC50 value was documented for this molecule, Cc1ncsc1-c1ccc(CNC(=O)[C@@H]2C[C@@H](O)CN2C(=O)[C@@H](NC(=O)CCCCCCCNC(=O)CCCOCC[C@H](NC(=O)c2ccn(S(C)(=O)=O)c2)C(=O)Nc2nc(-c3ccccc3)cs2)C(C)(C)C)cc1 ? > 10 µM

What DC50 value was documented for this molecule, Cc1ncsc1-c1ccc(CNC(=O)[C@@H]2C[C@@H](O)CN2C(=O)[C@@H](NC(=O)CCCCCCCCCC(=O)NCc2cccc(-c3cccc(-c4csc(NC(=O)CNC(=O)c5ccn(S(C)(=O)=O)c5)n4)c3)c2)C(C)(C)C)cc1 ? < 0.1 µM

What DC50 value was documented for this molecule, CS(=O)(=O)n1ccc(C(=O)NCC(=O)Nc2nc(-c3cccc(-c4cccc(CNC(=O)CCCCCCCOc5cccc6c5C(=O)N(C5CCC(=O)NC5=O)C6=O)c4)c3)cs2)c1 (stereo not shown) ? > 10 µM

What DC50 value was documented for this molecule, Cc1ncsc1-c1ccc(CNC(=O)[C@@H]2C[C@@H](O)CN2C(=O)[C@@H](NCc2cccc(-c3cccc(-c4csc(NC(=O)CNC(=O)c5ccn(S(C)(=O)=O)c5)n4)c3)c2)C(C)(C)C)cc1 ? > 10 µM

What DC50 value was documented for this molecule, CN(CCNC(=O)CCCOCC[C@H](NC(=O)c1ccn(S(C)(=O)=O)c1)C(=O)Nc1nc(-c2ccccc2)cs1)CCNc1cccc2c1C(=O)N(C1CCC(=O)NC1=O)C2=O (stereo partly shown) ? > 10 µM

What DC50 value was documented for this molecule, Cc1ncsc1-c1ccc(CNC(=O)[C@@H]2C[C@@H](O)CN2C(=O)[C@@H](NC(=O)CCCCCCCCC(=O)NCc2ccc(COC[C@H](NC(=O)c3ccn(S(C)(=O)=O)c3)C(=O)Nc3nc(-c4ccccc4)cs3)cc2)C(C)(C)C)cc1 ? 0.1 to 1 µM

What DC50 value was documented for this molecule, CS(=O)(=O)n1ccc(C(=O)N[C@@H](COCc2ccc(C(=O)NCCOCCOCCOCCNC(=O)COc3cccc4c3C(=O)N(C3CCC(=O)NC3=O)C4=O)cc2)C(=O)Nc2nc(-c3ccccc3)cs2)c1 (stereo partly shown) ? > 10 µM

What DC50 value was documented for this molecule, CN(CCNC(=O)COc1ccc2c(c1)C(=O)N(C1CCC(=O)NC1=O)C2=O)CCNC(=O)C1(c2cc(-c3cccc(-c4csc(NC(=O)CNC(=O)c5ccn(S(C)(=O)=O)c5)n4)c3)ccn2)CC1 (stereo not shown) ? > 10 µM

What DC50 value was documented for this molecule, CS(=O)(=O)n1ccc(C(=O)N[C@@H](COCc2ccc(C(=O)NCCOc3cccc(OCCNc4cccc5c4C(=O)N(C4CCC(=O)NC4=O)C5=O)c3)cc2)C(=O)Nc2nc(-c3ccccc3)cs2)c1 (stereo partly shown) ? > 10 µM
